The reported numbers originate from patent US20070299091A1.

tested_system: human D2short (Homo sapiens)
Sequence (P14416 1-414 isoform P14416-2): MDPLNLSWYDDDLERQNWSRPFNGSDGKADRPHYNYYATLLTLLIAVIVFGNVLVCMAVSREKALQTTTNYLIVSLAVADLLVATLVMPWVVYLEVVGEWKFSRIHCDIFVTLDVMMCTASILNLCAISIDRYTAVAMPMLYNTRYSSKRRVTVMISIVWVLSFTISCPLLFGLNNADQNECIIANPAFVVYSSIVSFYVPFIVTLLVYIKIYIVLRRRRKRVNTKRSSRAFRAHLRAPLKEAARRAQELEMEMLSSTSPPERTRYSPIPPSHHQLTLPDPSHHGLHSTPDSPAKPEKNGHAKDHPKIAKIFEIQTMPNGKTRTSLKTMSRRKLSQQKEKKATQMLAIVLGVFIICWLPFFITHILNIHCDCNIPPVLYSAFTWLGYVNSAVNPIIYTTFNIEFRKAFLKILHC
Listing of recorded pKi by entry.
The scale used: pKi is minus the common logarithm of the concentration in molar units.

// worked examples, pKi included
compound: O=C(NCCCCN1CCN(c2cccc(Cl)c2Cl)CC1)c1cc2cccnc2n1S(=O)(=O)c1ccccc1 [Example 4]
recorded_metric: pKi
quantitative_result: 7.41
//
compound: COc1ccccc1N1CCN(CCCCNC(=O)c2cc3cccnc3[nH]2)CC1 [Example 1]
recorded_metric: pKi
quantitative_result: 7.38
//
compound: O=C(NCCCCN1CCN(c2cccc(Cl)c2Cl)CC1)c1cc2cccnc2[nH]1 [Example 3]
recorded_metric: pKi
quantitative_result: 8.19

Proceed to the following item.
Problem: Value lookup for pKi; key = COc1ccccc1N1CCN(CCCCNC(=O)c2cc3cccnc3n2S(=O)(=O)c2ccccc2)CC1 [Example 2]
Result: 6.96

----------
Reported EC50 values follow for various compounds
tested_system: dopamine-D3-receptor (Homo sapiens, UniProt P35462)
Sequence (P35462 whole entry): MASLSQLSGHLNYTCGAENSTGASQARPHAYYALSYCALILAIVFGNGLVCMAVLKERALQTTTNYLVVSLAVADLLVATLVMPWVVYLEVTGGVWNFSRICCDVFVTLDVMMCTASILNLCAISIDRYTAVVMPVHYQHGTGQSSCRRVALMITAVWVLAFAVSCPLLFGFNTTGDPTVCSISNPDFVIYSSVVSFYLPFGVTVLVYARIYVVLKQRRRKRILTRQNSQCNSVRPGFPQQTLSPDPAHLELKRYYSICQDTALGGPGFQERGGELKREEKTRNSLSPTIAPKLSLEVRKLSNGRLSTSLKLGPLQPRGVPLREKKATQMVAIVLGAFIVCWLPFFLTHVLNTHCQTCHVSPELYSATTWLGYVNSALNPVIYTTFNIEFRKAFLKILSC
test_name: mitogenesis assay, [3H]thymidine incorporation in D3 receptor-expressing cells
assay_conditions: dose-effect curve from average values of all individual trials; seven concentrations in quadruplicate
Numbers only; they are read as nM.

Some solved cases for reference:
compound_structure: COc1ccccc1N1CCN(CCCCNC(=O)c2cc3cccnc3n2S(=O)(=O)c2ccccc2)CC1
EC50 [nM]: 7.9
--
compound_structure: O=C(NCCCCN1CCN(c2cccc(Cl)c2Cl)CC1)c1cc2cccnc2[nH]1
EC50 [nM]: 1.3

Problem: Quick one: EC50 for `COc1ccccc1N1CCN(CCCCNC(=O)c2cc3cccnc3[nH]2)CC1` ?
Result: 0.96

Problem: Query (compound): `O=C(NCCCCN1CCN(c2cccc(Cl)c2Cl)CC1)c1cc2cccnc2n1S(=O)(=O)c1ccccc1` ; field requested: EC50
Result: 2.1

----------
Each entry below lists one item and its recorded Ki value.
tested_system: porcine α1-receptor
Construct: Ki-values α1; other: porcine α1, [3H]prazosin; average of 2 experiments in triplicate
test_name: radioligand binding, [3H]prazosin, porcine cortex-membrane preparations
assay_conditions: porcine α1, [3H]prazosin; average of 2 experiments in triplicate
Express the result in nM but write the number alone.

Past entries and their recorded results:
compound_structure: O=C(NCCCCN1CCN(c2cccc(Cl)c2Cl)CC1)c1cc2cccnc2[nH]1
Ki (nM): 3.6
--
compound_structure: COc1ccccc1N1CCN(CCCCNC(=O)c2cc3cccnc3[nH]2)CC1
Ki (nM): 1.3
--
compound_structure: COc1ccccc1N1CCN(CCCCNC(=O)c2cc3cccnc3n2S(=O)(=O)c2ccccc2)CC1
Ki (nM): 4.6

# next compound below
Problem: Form field: Ki recorded for `O=C(NCCCCN1CCN(c2cccc(Cl)c2Cl)CC1)c1cc2cccnc2n1S(=O)(=O)c1ccccc1` with porcine α1-receptor (enter value)
Result: 21

----------
Target or system human D3 (Homo sapiens): recorded Ki listed per item.
Field: numeric (nM). Do not append units.

Recorded results for 3 compounds are shown here.
compound_structure: COc1ccccc1N1CCN(CCCCNC(=O)c2cc3cccnc3n2S(=O)(=O)c2ccccc2)CC1
tested_system: human D3 (Homo sapiens)
Sequence (P35462 whole entry): as above
recorded_metric: Ki
quantitative_result: 9.3
//
compound_structure: COc1ccccc1N1CCN(CCCCNC(=O)c2cc3cccnc3[nH]2)CC1
tested_system: human D3 (Homo sapiens)
recorded_metric: Ki
quantitative_result: 0.82
//
compound_structure: O=C(NCCCCN1CCN(c2cccc(Cl)c2Cl)CC1)c1cc2cccnc2n1S(=O)(=O)c1ccccc1
tested_system: human D3 (Homo sapiens)
recorded_metric: Ki
quantitative_result: 0.8

API: the following record is the query input.
Problem: Please provide the recorded Ki for `O=C(NCCCCN1CCN(c2cccc(Cl)c2Cl)CC1)c1cc2cccnc2[nH]1` , tested on human D3 (Homo sapiens).
Result: 0.13
